System: Bel-7402 human hepatocarcinoma cell
PROCEDURE_SUMMARY: Preliminary anti-tumor screening in vitro, SRB method
Assay type: cell-based
Parameters: key: +++: inhibition rates at three doses are greater than 50%; ++: inhibition rates at two doses are greater than 50%; +: inhibition rate at one dose is greater than 50%
RECORDED_CONDITIONS: Bel-7402, SRB, number of doses with inhibition > 50%
MEASUREMENT_KIND: Test results

compound="CC(C)C[C@H](NC(=O)[C@H](CC(C)C)NC(=O)[C@H](Cc1ccc2ccccc2c1)NC(=O)c1cnccn1)B1OC2CC3C[C@@H](C3(C)C)[C@]2(C)O1 (stereo partly drawn) [Compound 5m]" tested_system="Bel-7402 human hepatocarcinoma cell" observed_value=++
compound="CC(C)C[C@H](NC(=O)[C@H](Cc1ccccc1)NC(=O)[C@H](Cc1ccc(O)cc1)NC(=O)c1cnccn1)B(O)O [Compound 6d]" tested_system="Bel-7402 human hepatocarcinoma cell" observed_value=+
compound="CC(C)C[C@H](NC(=O)[C@H](Cc1ccccc1)NC(=O)[C@H](Cc1ccc2ccccc2c1)NC(=O)c1cnccn1)B1OC2CC3C[C@@H](C3(C)C)[C@]2(C)O1 (stereo partly drawn) [Compound 5b]" tested_system="Bel-7402 human hepatocarcinoma cell" observed_value=++

###

MEASUREMENT_KIND: melting point

Before answering, review these 5 worked examples.
compound=CC(C)C[C@H](NC(=O)[C@H](Cc1ccc2ccccc2c1)NC(=O)[C@H](CC(C)C)NC(=O)c1cnccn1)B(O)O observed_value="157 to 159 °C"
compound="CC(C)C[C@H](NC(=O)[C@H](Cc1ccc2ccccc2c1)NC(=O)[C@H](CC(C)C)NC(=O)c1cnccn1)B1OC2CC3C[C@@H](C3(C)C)[C@]2(C)O1 (stereo partly shown)" observed_value="140 to 142 °C"
compound=CC(C)C[C@H](NC(=O)[C@H](Cc1ccccc1)NC(=O)[C@H](CC(C)C)NC(=O)c1cnccn1)B(O)O observed_value="113 to 116 °C"
compound=CC(C)C[C@H](NC(=O)[C@H](Cc1ccccc1)NC(=O)[C@H](Cc1ccc2ccccc2c1)NC(=O)c1cnccn1)B(O)O observed_value="134 to 135 °C"
compound=CC(C)C[C@H](NC(=O)[C@H](Cc1ccccc1)NC(=O)[C@H](Cc1ccc(O)cc1)NC(=O)c1cnccn1)B(O)O observed_value="219 to 221 °C"

I would be grateful if you could provide melting point for each of the following entries.
1. CC(C)C[C@H](NC(=O)[C@H](Cc1ccc2ccccc2c1)NC(=O)[C@H](Cc1ccc2ccccc2c1)NC(=O)c1cnccn1)B1OC2CC3C[C@@H](C3(C)C)[C@]2(C)O1 (stereo partly shown)
2. CC(C)C[C@H](NC(=O)[C@H](CC(C)C)NC(=O)[C@H](Cc1ccc2ccccc2c1)NC(=O)c1cnccn1)B1OC2CC3C[C@@H](C3(C)C)[C@]2(C)O1 (stereo partly shown)
3. CC(C)C[C@H](NC(=O)[C@H](CC(C)C)NC(=O)[C@H](Cc1ccccc1)NC(=O)c1cnccn1)B(O)O

**Result**
136 to 137 °C
99 to 100 °C
116 to 118 °C

Could I get melting point for every one of these entries?
1. CC(C)C[C@H](NC(=O)[C@H](Cc1ccc2ccccc2c1)NC(=O)[C@H](Cc1ccc2ccccc2c1)NC(=O)c1cnccn1)B(O)O
2. CC(C)C[C@H](NC(=O)[C@H](Cc1ccc(O)cc1)NC(=O)[C@H](Cc1ccccc1)NC(=O)c1cnccn1)B(O)O
3. CC(C)C[C@H](NC(=O)[C@H](Cc1ccc2ccccc2c1)NC(=O)[C@H](Cc1ccccc1)NC(=O)c1cnccn1)B1OC2CC3C[C@@H](C3(C)C)[C@]2(C)O1 (stereo partly shown)
4. CC(C)C[C@H](NC(=O)[C@H](Cc1ccccc1)NC(=O)[C@H](Cc1ccccc1)NC(=O)c1cnccn1)B(O)O
5. CC(C)C[C@H](NC(=O)[C@H](Cc1ccccc1)NC(=O)[C@H](Cc1ccc2ccccc2c1)NC(=O)c1cnccn1)B1OC2CC3C[C@@H](C3(C)C)[C@]2(C)O1 (stereo partly shown)

**Result**
1: 145 to 146 °C; 2: 298 to 300 °C; 3: 97 to 98 °C; 4: 112 to 114 °C; 5: 98 to 100 °C
